stoichiometry N values by entry
Test Target: the molecule itself
Procedure Text: SEC; analytical, 10/300 Superdex 200, 50 mM HEPES pH 7.0, 0.2 M KCl; 250 ug protein incubated one hour in the buffer; calibrated with gel filtration standards
Attribute Measured: stoichiometry N

[[record]]
protein = "Replication protein A3 from Haloferax volcanii, full length (natural protein, UniProt D4GZS1 1-311, looked up, Replication protein A3 (RPA3) of Haloferax volcanii, amplified from genomic DNA of wild-type DS2; full length, residues 1-311 (the CTD construct ends at 311); Oligomeric state depends on the salt concentration; Tagged protein has a predicted MW of 35.4 x 10^3; also called HvRPA3; RPA3; source: E. coli B834 (DE3), purified (ammonium sulphate fractionation, Talon resin, Superdex 200); not shown: …) MTDLRTHAAEIADQFSDHLDVSADEVEERLESLVTEYRVPVDEARRSVVNSYLDEAGIERDELAGGSGGNEQTLLNDIDEDEQWVDVRAKVVELWEPRSESIAQVGLLGDDSGRMKFVSFTTSELPELEEGKSYALGNVVTDEYQGNFSVKLNRTTSITELDEEIEVGDDSTSVEGALVDSQSGSGLIKRCPEEGCTRVLQNGRCSEHGSVEGEFDLRIKAVVDDGDEVHEVIFNREMTEELTGIELDEAKQMAMDALDTTIVEEEMRGDLVGYYYRVTGPTLGRYVLANEVERLREPADAEELLIKARSM"
recorded_number = 4

[[record]]
protein = "HvRPA3 C-terminal domain (residues 164-311), first size exclusion peak (CTD-1) (domain or fragment, Haloferax volcanii, UniProt D4GZS1 164-311, looked up, Replication protein A3 (RPA3) of Haloferax volcanii, C-terminal domain residues 164-311, holds the zinc finger motif; Same construct as m4; the peak of higher apparent mass in the last purification step, concentrated apart; also called HvRPA3-CTD-1; source: E. coli B834 (DE3), purified (ammonium sulphate fractionation, Talon resin, Superdex 200; first of two peaks); not shown: 6xHis, N-terminal, …) EIEVGDDSTSVEGALVDSQSGSGLIKRCPEEGCTRVLQNGRCSEHGSVEGEFDLRIKAVVDDGDEVHEVIFNREMTEELTGIELDEAKQMAMDALDTTIVEEEMRGDLVGYYYRVTGPTLGRYVLANEVERLREPADAEELLIKARSM"
recorded_number = 7

[[record]]
protein = "HvRPA3 C-terminal domain (residues 164-311), second size exclusion peak (CTD-2) (domain or fragment, Haloferax volcanii, UniProt D4GZS1 164-311, looked up, Replication protein A3 (RPA3) of Haloferax volcanii, C-terminal domain residues 164-311, holds the zinc finger motif; Same construct as m3; the peak of lower apparent mass in the last purification step; Holds zinc (0.53 mol/mol); also called HvRPA3-CTD-2; source: E. coli B834 (DE3), purified (ammonium sulphate fractionation, Talon resin, Superdex 200; second of two peaks); not shown: 6xHis, …) EIEVGDDSTSVEGALVDSQSGSGLIKRCPEEGCTRVLQNGRCSEHGSVEGEFDLRIKAVVDDGDEVHEVIFNREMTEELTGIELDEAKQMAMDALDTTIVEEEMRGDLVGYYYRVTGPTLGRYVLANEVERLREPADAEELLIKARSM"
recorded_number = 3

[[record]]
protein = "HvRPA3 N-terminal domain (residues 1-163) (domain or fragment, Haloferax volcanii, UniProt D4GZS1 1-163, looked up, Replication protein A3 (RPA3) of Haloferax volcanii, N-terminal domain residues 1-163, holds the OB-fold; Tagged construct has a predicted MW of 18.9 x 10^3; also called NTD; HvRPA3-NTD; source: E. coli B834 (DE3), purified (ammonium sulphate fractionation, Talon resin, Superdex 200); not shown: 6xHis, N-terminal, kept) MTDLRTHAAEIADQFSDHLDVSADEVEERLESLVTEYRVPVDEARRSVVNSYLDEAGIERDELAGGSGGNEQTLLNDIDEDEQWVDVRAKVVELWEPRSESIAQVGLLGDDSGRMKFVSFTTSELPELEEGKSYALGNVVTDEYQGNFSVKLNRTTSITELDE"
recorded_number = 3


Origin of values: paper PMC3438722
